B1: PhoQ; a variant is named by its letters at X, in order, P23837 (parent)
chain: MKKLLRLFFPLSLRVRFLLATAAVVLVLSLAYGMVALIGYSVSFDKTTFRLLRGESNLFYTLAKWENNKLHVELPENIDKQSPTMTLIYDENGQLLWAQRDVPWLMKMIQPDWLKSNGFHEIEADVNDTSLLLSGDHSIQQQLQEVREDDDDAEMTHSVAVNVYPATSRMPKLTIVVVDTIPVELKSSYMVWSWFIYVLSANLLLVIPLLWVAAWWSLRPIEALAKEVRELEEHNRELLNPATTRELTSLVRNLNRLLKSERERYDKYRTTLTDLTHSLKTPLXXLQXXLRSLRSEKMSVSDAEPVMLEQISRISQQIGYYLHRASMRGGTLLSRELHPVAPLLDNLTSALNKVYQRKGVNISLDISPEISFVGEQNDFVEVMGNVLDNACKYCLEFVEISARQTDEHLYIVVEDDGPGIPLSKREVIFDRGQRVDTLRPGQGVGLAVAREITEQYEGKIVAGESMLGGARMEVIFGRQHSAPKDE

Variants of: B1
Assay Protocol: enrichment ratio after two sorts for PhoP signalling (ratio (wild type AVST 3.29)); higher = more functional
Settings: with PhoP (E. coli)
Over roughly 140,000 sequences, “enrichment ratio after two sorts for PhoP signalling” has its median near 0; the highest 2% begin near 11. Many of the other results were omitted from the sample, so the highest values are more common in it than they were.
Attribute Measured: enrichment ratio

Variant Identifier | Attribute Measured | Obs Value
AELM | enrichment ratio | 2.01
YKWQ | enrichment ratio | ≤ 0.25
TDCQ | enrichment ratio | 20.3
QGGM | enrichment ratio | 4.35
QPWD | enrichment ratio | ≤ 0.25

Hey, can you go through the list below and give me enrichment ratio for every item?
1. NISG
2. MIKG
3. TDCS
4. TDCI

["≤ 0.25", "≤ 0.25", 11.3, "≤ 0.25"]

State the recorded enrichment ratio for every item in the following list.
1. PTLL
2. QPDM
3. PDQD
4. ERFY
5. KDCA
6. QSWD
7. QVHC
8. QLHC

["≤ 0.25", "≤ 0.25", "≤ 0.25", "≤ 0.25", "≤ 0.25", 22.4, "≤ 0.25", 21.3]

Parameter requested: enrichment ratio. Apply to each item below.
1. QYWL
2. QRWD
3. FDCA
4. AELF
5. QGDM

1: ≤ 0.25; 2: ≤ 0.25; 3: ≤ 0.25; 4: 16.2; 5: 27.5
